- Test system: 873145-292-R-J1-PDC complex spheroid viability;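 note: luminescence signal used as surrogate for viable cell content; spheroids exposed to compounds for 7 days before viability readout; 100% = DMSO vehicle control viability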
- Protocol description: Anticancer human tumor 873145-292-R-J1-PDC patient-derived renal clear cell carcinoma cell line growth inhibition [POLQ]
- Experimental setup: second compound 3.16 µM; first compound 0.0316 µM; active compounds read low
Quantity name: viability, T/C

Compound	Result
C=CCn1c(=O)c2cnc(Nc3ccc(N4CCN(C)CC4)cc3)nc2n1-c1cccc(C(C)(C)O)n1 + COC1C(OC(N)=O)C(O)C(Oc2ccc3c(O)c(NC(=O)c4ccc(O)c(CC=C(C)C)c4)c(=O)oc3c2C)OC1(C)C	89.5%
CNCc1ccc(-c2[nH]c3cc(F)cc4c3c2CCNC4=O)cc1 + Cc1cccc(N(C)C(=O)C2C(O)CCN2c2nc(C)cc(C(F)(F)F)c2C#N)c1	102%
CCCS(=O)(=O)Nc1ccc(F)c(C(=O)c2c[nH]c3ncc(-c4ccc(Cl)cc4)cc23)c1F + Nc1ccc(C#CCN(C(=O)Cc2ncc(C(F)(F)F)cc2C(F)(F)F)c2ccc(F)cc2)nn1	106%
COc1cc2cc(C(=O)CCC(=O)O)sc2cc1OC + COC1C(OC(N)=O)C(O)C(Oc2ccc3c(O)c(NC(=O)c4ccc(O)c(CC=C(C)C)c4)c(=O)oc3c2C)OC1(C)C	103%
COc1cccc2c1C(=O)c1c(O)c3c(c(O)c1C2=O)CC(O)(C(=O)CO)CC3OC1CC(N)C(O)C(C)O1 (stereo unspecified) + COC1C(OC(N)=O)C(O)C(Oc2ccc3c(O)c(NC(=O)c4ccc(O)c(CC=C(C)C)c4)c(=O)oc3c2C)OC1(C)C	93.3%
O=C(c1cc(Cc2n[nH]c(=O)c3ccccc23)ccc1F)N1CCN(C(=O)C2CC2)CC1 + Nc1ccc(C#CCN(C(=O)Cc2ncc(C(F)(F)F)cc2C(F)(F)F)c2ccc(F)cc2)nn1	104%
CC1COCCN1c1cc(C2(S(C)(=N)=O)CC2)nc(-c2ccnc3[nH]ccc23)n1 (stereo unspecified) + Cc1cccc(N(C)C(=O)C2C(O)CCN2c2nc(C)cc(C(F)(F)F)c2C#N)c1	99.4%
C=CC(=O)N1CCN(c2nc(=O)n(-c3c(C)ccnc3C(C)C)c3nc(-c4c(O)cccc4F)c(F)cc23)C(C)C1 (stereo unspecified) + COC1C(OC(N)=O)C(O)C(Oc2ccc3c(O)c(NC(=O)c4ccc(O)c(CC=C(C)C)c4)c(=O)oc3c2C)OC1(C)C	92.4%
CNCc1ccc(-c2[nH]c3cc(F)cc4c3c2CCNC4=O)cc1 + Nc1ccc(C#CCN(C(=O)Cc2ncc(C(F)(F)F)cc2C(F)(F)F)c2ccc(F)cc2)nn1	100%
Nc1ccn(C2OC(CO)C(O)C2(F)F)c(=O)n1 (stereo unspecified) + COC1C(OC(N)=O)C(O)C(Oc2ccc3c(O)c(NC(=O)c4ccc(O)c(CC=C(C)C)c4)c(=O)oc3c2C)OC1(C)C	61.7%
CC1COCCN1c1cc(-c2ccnn2C)c2ccnc(-c3ccn[nH]3)c2n1 (stereo unspecified) + Cc1cccc(N(C)C(=O)C2C(O)CCN2c2nc(C)cc(C(F)(F)F)c2C#N)c1	101%
